# targetDesc: HCV polymerase 1A (Δ21 NS5B, H77) (Hepatitis C virus genotype 1a, UniProt P27958)
# Construct: 20 to 50 nM Δ21 NS5B
# Sequence (P27958 2421-2990, stated change not applied): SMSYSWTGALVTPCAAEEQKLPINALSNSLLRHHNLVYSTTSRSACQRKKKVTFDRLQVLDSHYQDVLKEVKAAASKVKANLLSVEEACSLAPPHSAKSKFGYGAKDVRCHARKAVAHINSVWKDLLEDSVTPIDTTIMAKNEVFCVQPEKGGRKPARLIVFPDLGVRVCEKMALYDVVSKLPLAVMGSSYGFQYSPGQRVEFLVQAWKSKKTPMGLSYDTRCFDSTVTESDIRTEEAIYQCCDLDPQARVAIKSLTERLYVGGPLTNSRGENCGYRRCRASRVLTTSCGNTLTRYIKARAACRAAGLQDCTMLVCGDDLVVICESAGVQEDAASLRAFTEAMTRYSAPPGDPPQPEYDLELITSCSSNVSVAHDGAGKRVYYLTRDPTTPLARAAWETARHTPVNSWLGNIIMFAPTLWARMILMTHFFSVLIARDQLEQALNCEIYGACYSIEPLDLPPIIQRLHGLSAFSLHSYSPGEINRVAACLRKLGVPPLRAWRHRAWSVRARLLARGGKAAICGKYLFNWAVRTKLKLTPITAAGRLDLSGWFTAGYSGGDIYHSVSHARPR
# experimentNotes: biochemical
# measurementContext: IC50 1a
pIC50: −log10 of the molar value.
Give pIC50 for every item shown.

Indicate its recorded pIC50; the molecule in question is COc1c(C#Cc2ccc(NS(C)(=O)=O)cc2Cl)cc(-n2ccc(=O)[nH]c2=O)cc1C(C)(C)C [IB-L2-1.2]
> 8.00

Entry COc1c(C#Cc2ccc(NS(C)(=O)=O)cc2C(=O)N2CCOCC2)cc(-n2ccc(=O)[nH]c2=O)cc1C(C)(C)C [IB-L2-1.11] needs its pIC50 filled in; supply it.
7.00 to 8.00

Note pIC50 for the molecule shown: COC(=O)N(c1ccc(NC(=O)c2cc(N3CCC(=O)NC3=O)cc(C(C)(C)C)c2OC)cc1)S(C)(=O)=O [IA-L3-1.73]
< 6.00

// Input: CCCC(=O)OCN1C(=O)CCN(c2cc(C(=O)Nc3ccc(N(COC(=O)CCC)S(C)(=O)=O)cc3)c(OC)c(C(C)(C)C)c2)C1=O [IA-L3-1.88] . Output its pIC50 only.
< 6.00

Indicate its recorded pIC50; the molecule in question is COc1c(-c2ccc3c(c2)CC=C3CNS(C)(=O)=O)cc(-n2ccc(=O)[nH]c2=O)cc1-c1cccs1 [IB-L0-2.63]
7.00 to 8.00

Identify the reported pIC50 for the following entry. COc1c(C(=O)Nc2ccc(NS(C)(=O)=O)cc2)cc(N2CCC(=O)NC2=O)cc1C(C)C [IA-L3-1.111]
7.00 to 8.00

Report pIC50 for COc1c(C(=O)Nc2ccc(NS(C)(=O)=O)cn2)cc(N2CCC(=O)NC2=O)cc1C(C)(C)C [IA-L3-1.102]
6.00 to 7.00

Tell us which pIC50 value is on record for COc1c(C(=O)Nc2ccc(NC(=O)OC(C)(C)C)cc2)cc(N2CCC(=O)NC2=O)cc1C(C)(C)C [IA-L3-1.50]
< 6.00

Note pIC50 for the molecule shown: COc1c(C(=O)Nc2ccccc2S(C)(=O)=O)cc(N2CCC(=O)NC2=O)cc1C(C)(C)C [IA-L3-1.79]
< 6.00

Output measured pIC50 for this item: CC(C)(C)c1cc(N2CCC(=O)NC2=O)cc(C(=O)Nc2cccc(CNS(C)(=O)=O)c2)c1O [IA-L3-1.11]
< 6.00

Input COc1c(C(=O)Nc2ccc3c(c2)CCC(=O)N3)cc(N2CCC(=O)NC2=O)cc1C(C)(C)C [IA-L3-2.4] , output reported pIC50.
< 6.00

Give the reported pIC50 for this molecule. COc1c(-c2ccc(/C=N/NS(C)(=O)=O)c(F)c2)cc(N2CCC(=O)NC2=O)cc1C(C)(C)C [IA-L0-1.4]
7.00 to 8.00

Specify measured pIC50 for CC(C)(C)c1cc(C#Cc2ccc(NS(C)(=O)=O)cc2)cc(N2CCC(=O)NC2=O)c1 [IA-L2-1.1] .
7.00 to 8.00

Given the molecule COc1c(C#Cc2cc(F)c(NS(C)(=O)=O)cc2C)cc(-n2ccc(=O)[nH]c2=O)cc1C(C)(C)C [IB-L2-1.3] , write its reported pIC50.
> 8.00

Look up and report measured pIC50 for this entry: COc1c(-c2nc3cc(N(S(C)(=O)=O)S(C)(=O)=O)ccc3[nH]2)cc(N2CCC(=O)NC2=O)cc1C(C)(C)C [IA-L0-2.10]
< 6.00

Look up and report measured pIC50 for this entry: COc1c(C#Cc2cc(F)c(NS(C)(=O)=O)cc2C(F)(F)F)cc(N2CCC(=O)NC2=O)cc1C(C)(C)C [IA-L2-1.22]
7.00 to 8.00

Annotate the molecule COc1c(NC(=O)c2ccccc2)cc(N2CCC(=O)NC2=O)cc1C(C)(C)C [IA-L4-1.8] with its measured pIC50.
< 6.00

Fill in pIC50 for record CC(C)(C)c1cc(-n2ccc(=O)[nH]c2=O)cc(-c2ccc3c(CNS(C)(=O)=O)csc3c2)c1Cl [IB-L0-2.35]
7.00 to 8.00
